test system: RXF 393 renal; assay: NCI tumour cell line growth inhibition, 48 h
Measured TGI, listed per entry for reference.

Below: 3 molecules and their reported TGI.
> print(dat)
                              line.notation  readout.value
1  O=C1[C@@H]2C(c3ccccc3F)=NO[C@@H]2C(=O)N1c1ccc(Cc2ccc(N3C(=O)[C@H]4C(c5ccccc5F)=NO[C@H]4C3=O)cc2)cc1      > 81.3 µM
2  O=C(O)[C@H](NS(=O)(=O)c1ccc([N+](=O)[O-])cc1)c1ccccc1       > 100 µM
3  CC(=O)O[C@H]1CC[C@@]2(C)C(=CC[C@H]3[C@@H]4C[C@H](N5CCOCC5)[C@H](OC(C)=O)[C@@]4(C)CC[C@@H]32)C1       > 100 µM

Please find the next molecule below.
Task: Given the entry `[N-]=[N+]=NC1=C(c2ccccn2)C(=O)c2cccc3cccc1c23` , report its measured TGI.
Output: > 100 µM

* * *

system: T-47D breast; experiment: NCI tumour cell line growth inhibition, 48 h; in the data active means GI50 below about 0.43 µM; inactive means the rest
Pick one: T = active, F = inactive

Before answering, review these 5 worked examples.
> print(dat)
                                   compound  tested.system  cat
1  Cc1ccc(-c2nc3ccc(Cl)cc3c(=O)n2N2C(=O)CSC2c2ccccc2Cl)cc1 (stereo not drawn)   T-47D breast    F
2  O=S(=O)(Nc1cc(Sc2cccc3cccnc23)c(O)c2ccccc12)c1ccccc1   T-47D breast    F
3                  CCSc1nc(SCC)c2cn[nH]c2n1   T-47D breast    F
4  CN(C)CCN1C(=O)c2ccc3c4c(ccc(c24)C1=O)C(=O)N(CCN=C=S)C3=O   T-47D breast    T
5  CCCCON(OC(=O)c1ccc2ccc3cccc4ccc1c2c34)C(C)=O   T-47D breast    F

Task: Check the results log: what was the call for `CN(C)C(=O)[C@H](O)[C@H](Cc1ccccc1)NC(=O)c1cc2cc(Cl)ccc2[nH]1` ?
Output: F

Task: How was `CC1=C[C@H]2c3c(c(O)c(O)c4oc(-c5ccccc5)cc(=O)c34)[C@H](c3cc(O)c(O)c4oc(-c5ccccc5)cc(=O)c34)[C@H]2C(C)(C)C1` classified in this test?
Output: F

Task: # lookup: test call for `CC(CO)(CO)NCCCCn1ccc2c1C(=O)c1c(c(O)c3ccccc3c1O)C2=O`
Output: F

Task: # fetch the recorded call for `CC(C)(C[C@H]1CN(S(=O)(=O)c2cccc(C(F)(F)F)c2)c2cc(-c3cc(F)cc(OC(F)F)c3)ccc2O1)C(=O)O` here
Output: F

* * *

tested on: SF-295 CNS; assay: NCI tumour cell line growth inhibition, 48 h
assay_metric: TGI (µM)
// note: answer is a bare numeric in µM

Consider the reported TGI for these molecules:
> print(dat)
                                   molecule  assay.metric  readout.value
1  O=C(/C=C\c1ccc(NCc2ccc(C(=O)O)cc2)cc1)CCl           TGI           34.3
2  O=C1C(=Cc2ccccc2O)N=C(c2ccccc2)N1n1c(-c2ccccc2)nc2ccccc2c1=O           TGI           56.8
3              Oc1cccc(-c2nc3cc(F)ccc3s2)c1           TGI           50.7

Task: # query: TGI | item `Cc1ncc(CCCN(C)C)cc1Nc1ncc2c(n1)-c1ccc(C(F)(F)F)cc1NC(=S)C2` | system: SF-295 CNS
Output: 2.7

Task: Record COc1cc(NC(C)CCCN)c2nccc(C)c2c1 (configuration not stated) : what is its TGI with SF-295 CNS?
Output: 35.4

Task: // map `O=[N+]([O-])/C(C(Cl)=C(Cl)Cl)=C(\N1CCCCC1)n1cncn1` to recorded TGI (system: SF-295 CNS)
Output: 35.8

Task: Request: TGI, test system SF-295 CNS, entry `COc1cc(/C=C/c2ccc(OC)c(OC)c2)cc(OC)c1`
Output: 68.9

Task: Please tell me: TGI of `CC/C=C\C[C@H]1C/C=C2/C(=O)C=C[C@@H]2C/C=C\CCCC(=O)O1` , system SF-295 CNS?
Output: 5.44

Task: Value wanted: TGI (SF-295 CNS) of entry C=C(Cl)C(C)(Cl)CCC(Br)C(C)(C)Cl (configuration not stated)
Output: 88.6

* * *

system: MDA-MB-435; assay: NCI tumour cell line growth inhibition, 48 h
assay_metric: TGI

> print(dat)
                                   compound  assay.metric  readout.value
1                 CCCCN=C(c1ccccc1)N1CCOCC1           TGI       > 100 µM
2  Clc1ccc(C=Nc2ccc3c(c2)Cc2ccccc2-3)c(Cl)c1           TGI       > 100 µM

Task: Identify the measured TGI of COc1ccc(C2OC(c3ccncc3)=NN2C)cc1OC (configuration not stated) for MDA-MB-435.
Output: > 100 µM

Task: Checklist item: TGI tested on MDA-MB-435, entry `C=C1C(=O)C=C[C@]2(C)CC[C@H]3C(=C)C(=O)O[C@@H]3[C@@H]12` , value?
Output: 3.21 µM

Task: Write down the reported TGI of `COc1ccc(/C=C2\N=C(SC)NC2=O)cc1` , test system: MDA-MB-435.
Output: > 100 µM

Task: Missing value: TGI, MDA-MB-435, entry `ClCC[N+]12CC[N+](CCCl)(CC1)C2` . Fill in?
Output: > 100 µM

Task: Fill in the recorded TGI for this compound, with MDA-MB-435 as test system: CN1C2CCC1CC(C)(O)C2 (configuration not stated)
Output: > 100 µM

Task: // map CN(C)c1ccc(C2SCC(=O)N2c2ccc(Oc3ccc(Cl)cc3)c(Cl)c2)cc1 (configuration not stated) to recorded TGI (system: MDA-MB-435)
Output: 84 µM

Task: Please tell me: TGI of N#CC1=C(N)N(c2ccccc2)C(c2ccccc2)C1(C#N)C#N (configuration not stated) , system MDA-MB-435?
Output: 35.6 µM

Task: GET /values?readout=TGI&system=MDA-MB-435&item= `Nc1ccc(S2(c3ccc(N)cc3)C=C(c3ccccc3)C(c3ccccc3)=C2)cc1`
Output: > 71.3 µM

Task: Report TGI for CC1CCCC(CC(=O)O)(CC(=O)O)C1 (configuration not stated) tested on MDA-MB-435.
Output: > 100 µM

Task: Notebook entry, MDA-MB-435 assay: TGI of `CC(C)NC(=O)OCCN=c1c2ccccc2ccc2ccccc12` = ?
Output: > 100 µM

* * *

tested on: M14 melanoma; experiment: NCI tumour cell line growth inhibition, 48 h
Reported TGI values are given for each entry in this list.
API: value field is a number in µM; no unit string.

> print(dat)
                                   molecule  tested.system  assay.metric  readout.value
1  CC(C(O)Cc1ccccc1)N(C)N=Nc1ccc([N+](=O)[O-])cc1 (stereo not given)   M14 melanoma           TGI           33.1

Next item in the queue.
Task: Look at this molecule and give its reported TGI. `O=C1c2cccnc2-c2nccc3c2c1nc1cc(Br)ccc13`
Output: 0.163

* * *

test system: DU-145 prostate; assay: NCI tumour cell line growth inhibition, 48 h
Readings of log10 of TGI for the listed compounds
# log10 transformed; quantity=TGI; unit=µM

Past entries and their recorded results:
compound	log10 of TGI
CC/C=C\C[C@H]1C/C=C2/C(=O)C=C[C@@H]2C/C=C\CCCC(=O)O1	0.76
CCn1c(SCc2ccc(C)cc2)nnc1-c1nn(-c2ccc(Cl)cc2Cl)c(-c2ccc(Cl)cc2)c1C	1.14
C1CCC([PH+](C2CCCCC2)C2CCCCC2[PH+](C2CCCCC2)C2CCCCC2)CC1.O=C(C1[CH-]CCCC1)C1CCCC[N-]1.[Au] (stereo not given)	0.21
Br[C](Br)(Br)[Hg][c]1ccccc1	1.54
C=C1CCC(CC[C@@H]2CC[C@]3(OC2)O[C@@]2(O)CC[C@]3(C)OC2(C)C)C(C)(C)[C@H]1C/C=C1/C(=O)OC[C@@H]1O (stereo not given in full)	1.17
COC1C=COC2(C)Oc3c(C)c(O)c4c(O)c(c(C5SCCS5)c(O)c4c3C2=O)NC(=O)C(C)=C/C=C\C(C)C2OC(C)(C)OC(C2C)C(C)C(OC(C)=O)C1C (stereo not given)	1.78
N#CC1=C(N)N(c2ccccc2)C(c2ccccc2)C1(C#N)C#N (stereo not given)	1.52

We next turn to a different compound, shown below.
Task: Dear colleague, I am looking for the recorded log10 of TGI of the following compound: `Cc1cc(C(C)(C)CC(C)(C)C)ccc1OCCOCC[N+](C)(C)Cc1ccccc1`
Output: 0.50
